Recorded values, source ChEMBL document CHEMBL1201862.

# Tested on: NCI/ADR-RES
# assay-method-text: NCI tumour cell line growth inhibition, 48 h
Active and inactive are the calls of the source. Cut-off read from the data, not from the text of the source: active = GI50 up to about 1.1 µM and inactive = higher.
Each entry below carries its reported GI50.

compound	GI50
CC1CSc2nc3nc(S)nc-3c(O)n2C1 (stereo unspecified)	> 100 µM (inactive)
CN(C)C=O.O=C(Nc1nnn[nH]1)c1nc(O)cc(-c2ccccc2)n1	> 100 µM (inactive)
COC1(CC[C@@H](C)COC2OC(CO)C(O)C(O)C2O)O[C@H]2C[C@H]3[C@@H]4CC=C5C[C@@H](OC6OC(CO)C(O)C(OC7OC(CO)C(O)C(O)C7O)C6OC6OC(C)C(O)C(O)C6O)CC[C@]5(C)[C@H]4CC[C@]3(C)[C@H]2[C@@H]1C (stereo partly specified)	16 µM (inactive)
CC(=O)C(C(C)=O)[C@@H]1OC(C)(C)O[C@@H]1[C@H]1COC(C)(C)O1	55.6 µM (inactive)
c1cc(-c2ccc(-c3nc4ccc(C5=NCCN5)cc4s3)s2)ccc1C1=NCCN1	5.53 µM (inactive)

Query: GET /values?readout=GI50&system=NCI/ADR-RES&item= `CN1N=C(c2ccccc2)c2cc(Cl)ccc2N=C1N/N=C/c1ccc(N(C)C)cc1`
Reply: > 100 µM (inactive)

Query: Give recorded GI50 with NCI/ADR-RES for the following compound: COc1ccc(C2CC(=O)Oc3ccccc3O2)cc1 (stereo unspecified)
Reply: > 100 µM (inactive)

Query: Request: GI50, test system NCI/ADR-RES, entry `CC/C(=C\c1ccc(Cl)c(Cl)c1)[N+](=O)[O-]`
Reply: 2.27 µM (inactive)

Query: Please state recorded GI50 (tested on NCI/ADR-RES) of `CSc1ncnc2c1ncn2CCC(=O)OC(C)(C)C`
Reply: > 100 µM (inactive)

Query: So what GI50 did CC(CCOc1ccc2ccc(=O)oc2c1)C1=CC(=O)C(C)(C)O1 (stereo unspecified) get with NCI/ADR-RES?
Reply: 2.12 µM (inactive)

Query: Give NCI/ADR-RES GI50 for `O=C(CON1C(=O)c2ccccc2C1=O)c1ccccc1`
Reply: > 100 µM (inactive)

Query: Give the reported GI50 for CC1(O)CC(C(F)(F)F)(C(F)(F)F)OC1=O (stereo unspecified) (system: NCI/ADR-RES).
Reply: > 10 µM (inactive)

Query: Look up GI50 with NCI/ADR-RES for this compound: `C[C@@H]1CC[C@H]2[C@H]1[C@H]1[C@@H](CC[C@]2(C)N=C=S)C1(C)C`
Reply: 21.7 µM (inactive)

Query: Please state recorded GI50 (tested on NCI/ADR-RES) of CC(C(=O)NCNC(=O)c1ccccc1)C(=O)Nc1ccccc1 (stereo unspecified)
Reply: > 100 µM (inactive)

Query: Item O=C(NCCC1CN(S(=O)(=O)C(F)(F)F)c2ccccc21)OCc1ccccc1 (stereo unspecified) with NCI/ADR-RES - GI50?
Reply: > 100 µM (inactive)

Query: What measured GI50 is associated with [O-][S+](CCc1ccccc1)Nc1ccccc1 (stereo unspecified) on NCI/ADR-RES?
Reply: 58.5 µM (inactive)

Query: Kindly state the measured GI50 obtained for CN(C)CC(O)CNC(=O)Nc1ccccc1 (stereo unspecified) with NCI/ADR-RES.
Reply: > 100 µM (inactive)

Query: # value lookup — system NCI/ADR-RES, readout GI50, item `CN1CN(c2ccccc2)C2(CCNCC2)C1=O`
Reply: > 100 µM (inactive)

Query: Reported GI50 for NCI/ADR-RES, given `COc1ccc2nc3cc([N+](=O)[O-])ccc3c(NNc3ccc(Cl)cc3)c2c1` ?
Reply: 32.6 µM (inactive)

Query: So what GI50 did NCCOCC(N)C(=O)O (stereo unspecified) get with NCI/ADR-RES?
Reply: > 100 µM (inactive)

Query: Item: `O=c1[nH]c2ccc(CC(=S)N3CCN(c4ccccc4)CC3)cc2s1` Test system: NCI/ADR-RES Read-out: GI50 Value: ?
Reply: 13.2 µM (inactive)
